Quick reference: log10 Koc (L/kg) of the listed items.
measure: log10 Koc (L/kg)

compound=COc1nc(C)nc(NC(=O)NS(=O)(=O)c2ccccc2Cl)n1 meas_value=2.19
compound="CCC(C)n1c(=O)[nH]c(C)c(Br)c1=O (centres undefined)" meas_value=1.6
compound=CNC(=O)Oc1cccc2ccccc12 meas_value=2.4
compound=COC(=O)c1c(Cl)c(Cl)c(C(=O)OC)c(Cl)c1Cl meas_value=3.7
compound=Nc1cc(Cl)cc(C(=O)O)c1Cl meas_value=1.48
compound=c1ccc2cc3ccccc3cc2c1 meas_value=4.31
compound=CNC(=O)Oc1cc(C)cc(C)c1 meas_value=1.71
compound=Clc1cc(Cl)c(Cl)c(Cl)c1Cl meas_value=3.5
compound=CCOP(=S)(OCC)SCSP(=S)(OCC)OCC meas_value=4.06
compound="CCNc1nc(NC(C)CC)nc(OC)n1 (centres undefined)" meas_value=2.78
compound=CCCCCCCO meas_value=1.14
compound=CC(C)COC(=O)c1ccccc1C(=O)OCC(C)C meas_value=3.14
compound=Cn1c(=O)on(-c2ccc(Cl)c(Cl)c2)c1=O meas_value=3.48
compound=OCCc1ccccc1 meas_value=1.5

----------
Quick reference: log10 vapour pressure (mmHg) of the listed items.
measure: log10 vapour pressure (mmHg)

compound=Cc1occc1C(=O)Nc1ccccc1 meas_value=-6.82
compound=CCCC(C)(C)C(C)(C)C meas_value=0.589
compound=CCSCc1ccccc1OC(=O)NC meas_value=-5.15
compound="CC12CCC(CC1=O)C2(C)C (centres undefined)" meas_value=-0.665
compound=CCc1cccc(C(C)=O)c1 meas_value=0.357
compound=CC1CCCCC1 meas_value=1.66
compound=CCCCCCCS meas_value=0.116
compound=CCOC(C)=O meas_value=1.97
compound=CCO meas_value=1.77
compound=N#CCCCC#N meas_value=-2.08
compound=OCCc1ccccc1 meas_value=-1.06
compound=CC(C)CC(=O)CC(C)C meas_value=0.217
compound=ClSC(Cl)(Cl)Cl meas_value=0.477
compound="CC(C)C(C)C(C)(C)C (centres undefined)" meas_value=1.1
compound=CN(C)P(=O)(N(C)C)N(C)C meas_value=-1.34
compound=CO[SiH](OC)OC meas_value=1.88
compound="CC(Br)CBr (centres undefined)" meas_value=0.894
compound=CCCCCCC meas_value=1.66
compound=CCCOCCO meas_value=0.494
compound="COCC(C)OC(C)=O (centres undefined)" meas_value=0.593
compound=CC(C)C(C)(C)C meas_value=2.01
compound=CCOP(=S)(OCC)Oc1cc(C)nc(C(C)C)n1 meas_value=-4.05
compound=Cc1ccc(C)nc1 meas_value=0.526
compound=CN=C=S meas_value=0.549
compound=O=P(c1ccccc1)(c1ccccc1)c1ccccc1 meas_value=-8.59
compound=CCOC(N)=O meas_value=-0.582
compound=S=C=NCc1ccccc1 meas_value=-1.81
compound=C1CCNC1 meas_value=1.8
compound=CCCCCCCCCC meas_value=0.155
compound=CCC[C@@H](O)CC meas_value=0.682
compound=Clc1cc2ccccc2c(Cl)c1Cl meas_value=-4.7
compound=FC(F)F meas_value=4.55
compound=CCOCOCC meas_value=1.53
compound=CCCCC[C@@H](O)CC meas_value=-0.592
compound=CCCCCCCCC1CCCCC1 meas_value=-2.04
compound=CCSc1nnc(C(C)(C)C)c(=O)n1N meas_value=-5.12
compound=CC(C)C(C)C(C)C meas_value=1.43
compound=CC(C)CC=O meas_value=1.7
compound=CCCCCO meas_value=0.342
